Data provenance is patent US7759373B2.

Test system: isolated rabbit urinary bladder
Test: Relaxation effect on potassium-induced contraction of isolated rabbit urinary bladder
Format: cell-based
Conditions: Oryctolagus cuniculus; 50% relaxation concentration; high-K+ (30 mM) pre-contracted rabbit bladder strips; relaxation as percentage of the maximum produced by 0.1 mM papaverine; read-out: EC50 value range
Reported EC50 values are given for each entry in this list.
MEASURED PARAMETER: EC50

COMPOUND: CCc1nc(-c2ccc(F)cc2)[nH]c1-c1cncs1 [Preparation example 86]
MEASURED PARAMETER: EC50
TEST VALUE: 0.5 to 1 µM
--
COMPOUND: O=C(O)Cc1nc(-c2ccc(Cl)cc2)oc1-c1ccc(Br)s1 [Preparation Example 245]
MEASURED PARAMETER: EC50
TEST VALUE: 1 to 3 µM
--
COMPOUND: CCc1nc(-c2cccc(C#N)c2)[nH]c1-c1cccnc1 [Preparation example 57]
MEASURED PARAMETER: EC50
TEST VALUE: 1 to 3 µM
--
COMPOUND: O=C(O)Cc1nc(-c2cc3ccc(F)cc3s2)oc1-c1ccc(Cl)s1 [Preparation Example 451]
MEASURED PARAMETER: EC50
TEST VALUE: 1 to 3 µM
